- System: Staphylococcus aureus
- procedure.text: Antibacterial activity against methicillin-resistant Staphylococcus aureus CCARM 3506 assessed as bacterial growth inhibition measured during 24 hrs incubation at 37 degC by two-fold serial dilution technique
- Format: functional
- test.conditions: CCARM 3506, 24 h
outcome.measure: MIC (µg/mL)

>>> measured_value("Cc1nn(-c2ccccc2)c(Oc2ccc(Cl)cc2Cl)c1/C=C1\\SC(=S)N(CC(=O)O)C1=O")
8
>>> measured_value("Cc1ccc(Oc2c(/C=C3\\SC(=S)N(CC(=O)O)C3=O)c(C)nn2-c2ccccc2)cc1")
32
>>> measured_value("CCC(C)[C@@H](C(=O)O)N1C(=O)/C(=C/c2c(C)nn(-c3ccccc3)c2Oc2c(Cl)cccc2Cl)SC1=S (stereo partly drawn)")
16
>>> measured_value("Cc1nn(-c2ccccc2)c(Oc2ccc3ccccc3c2)c1/C=C1\\SC(=S)N([C@H](C(=O)O)C(C)C)C1=O")
8
>>> measured_value("CCC(C)[C@@H](C(=O)O)N1C(=O)/C(=C/c2c(C)nn(-c3ccccc3)c2Oc2cccc(Cl)c2)SC1=S (stereo partly drawn)")
8
>>> measured_value("Cc1nn(-c2ccccc2)c(Oc2ccc(Cl)cc2)c1/C=C1\\SC(=S)N(CC(=O)O)C1=O")
16
>>> measured_value("COc1ccc(Oc2c(/C=C3\\SC(=S)N([C@H](C(=O)O)C(C)C)C3=O)c(C)nn2-c2ccccc2)cc1")
8
>>> measured_value("Cc1nn(-c2ccccc2)c(Oc2ccc(Br)cc2)c1/C=C1\\SC(=S)N([C@@H](CC(C)C)C(=O)O)C1=O")
4

====

- System: Staphylococcus aureus
- procedure.text: Antibacterial activity against quinolone-resistant Staphylococcus aureus CCARM 3505 assessed as bacterial growth inhibition measured during 24 hrs incubation at 37 degC by two-fold serial dilution technique
- Assay type: functional
- test.conditions: CCARM 3505, 24 h
Measured MIC, listed per entry.
outcome.measure: MIC (µg/mL)

>>> measured_value("Cc1ccccc1Oc1c(/C=C2\\SC(=S)N(CC(=O)O)C2=O)c(C)nn1-c1ccccc1")
32
>>> measured_value("Cc1ccc(Oc2c(/C=C3\\SC(=S)N(CC(=O)O)C3=O)c(C)nn2-c2ccccc2)c(C)c1")
16
>>> measured_value("Cc1nn(-c2ccccc2)c(Oc2ccccc2Cl)c1/C=C1\\SC(=S)N(CC(=O)O)C1=O")
32
>>> measured_value("CCC(C)[C@@H](C(=O)O)N1C(=O)/C(=C/c2c(C)nn(-c3ccccc3)c2Oc2ccccc2Cl)SC1=S (stereo partly specified)")
4
>>> measured_value("Cc1nn(-c2ccccc2)c(Cl)c1/C=C1\\SC(=S)N([C@H](C(=O)O)C(C)C)C1=O")
32
>>> measured_value("Cc1nn(-c2ccccc2)c(Oc2cccc(C(F)(F)F)c2)c1/C=C1\\SC(=S)N(CC(=O)O)C1=O")
32
>>> measured_value("CCC(C)[C@@H](C(=O)O)N1C(=O)/C(=C/c2c(C)nn(-c3ccccc3)c2Oc2ccc(Cl)cc2Cl)SC1=S (stereo partly specified)")
2
>>> measured_value("CCC(C)[C@@H](C(=O)O)N1C(=O)/C(=C/c2c(C)nn(-c3ccccc3)c2Oc2ccc(Cl)cc2)SC1=S (stereo partly specified)")
4
>>> measured_value("CCC(C)[C@@H](C(=O)O)N1C(=O)/C(=C/c2c(C)nn(-c3ccccc3)c2Oc2ccc(Br)cc2)SC1=S (stereo partly specified)")
2
